The reported numbers originate from ChEMBL document CHEMBL4842341.

Quick reference for AUC(0-inf) at 24 h among some molecules
measurement_protocol: in vivo
condition_details: CD-1, mouse, iv, 0.3 mg/kg

[
  {
    "structure_string": "C[C@H](C(=O)Nc1ccc(Cl)cc1)[C@H]1CC[C@@H](c2ccnc3ccc(F)cc32)CC1",
    "AUC(0-inf) at 24 h / µM·h": 0.37
  },
  {
    "structure_string": "NS(=O)(=O)NCCNc1nonc1C(=NO)Nc1ccc(F)c(Br)c1",
    "AUC(0-inf) at 24 h / µM·h": 0.21
  }
]

----------
measurement_protocol: in vitro
condition_details: human, liver microsomes
value_kind: log10 CLint scaled at 0.75 h, 1 µM (log10 of the value in mL/min/kg)

[
  {
    "molecule": "C[C@H](C(=O)Nc1ccc(Cl)cc1)[C@H]1CC[C@@H](c2ccnc3ccc(F)cc32)CC1",
    "log10 CLint scaled at 0.75 h, 1 µM": 1.45
  },
  {
    "molecule": "O=C1CC(c2c[nH]c3ccc(F)cc23)C(=O)N1 (stereo not drawn)",
    "log10 CLint scaled at 0.75 h, 1 µM": 0.46
  },
  {
    "molecule": "CCC(NC(=O)c1ccc(Cl)cc1)[C@@H]1[C@@H]2C[C@@H](Oc3ccnc4ccc(F)cc34)C[C@@H]21 (stereo partly drawn)",
    "log10 CLint scaled at 0.75 h, 1 µM": 2.69
  },
  {
    "molecule": "O=C(Nc1ccc(Cl)cc1)N1CCC(CCc2ccnc3ccccc23)CC1",
    "log10 CLint scaled at 0.75 h, 1 µM": 2.06
  },
  {
    "molecule": "CCC(NC(=O)c1ccc(Cl)cc1)[C@@H]1[C@@H]2C[C@@H](Oc3ccnc4ccccc34)C[C@@H]21 (stereo partly drawn)",
    "log10 CLint scaled at 0.75 h, 1 µM": 1.36
  },
  {
    "molecule": "CCC(NC(=O)c1ccc(Cl)cc1)[C@H]1[C@@H]2C[C@@H](n3cnc4cc(F)cc(F)c43)C[C@@H]21 (stereo partly drawn)",
    "log10 CLint scaled at 0.75 h, 1 µM": 0.74
  },
  {
    "molecule": "CCC(NC(=O)c1ccc(Cl)cc1)[C@H]1[C@@H]2C[C@@H](n3cnc4cccc(F)c4c3=O)C[C@@H]21 (stereo partly drawn)",
    "log10 CLint scaled at 0.75 h, 1 µM": -0.15
  },
  {
    "molecule": "O[C@H](C[C@H]1c2c(F)cccc2-c2cncn21)[C@H]1CC[C@H](O)CC1",
    "log10 CLint scaled at 0.75 h, 1 µM": 1.04
  }
]

----------
Quick reference for Cmax among some molecules
measurement_protocol: in vivo
condition_details: CD1, mouse, po, 10 mg/kg

[
  {
    "molecule": "CCC(NC(=O)c1ccc(Cl)cc1)[C@@H]1[C@@H]2C[C@H](Oc3ccnc4ccc(F)cc34)C[C@@H]21 (stereo partly drawn)",
    "Cmax / µM": 51
  },
  {
    "molecule": "CC(NC(=O)c1ccc(C#N)cc1)[C@H]1[C@@H]2C[C@@H](Oc3ncnc4cc(F)ccc34)C[C@@H]21 (stereo partly drawn)",
    "Cmax / µM": 44
  },
  {
    "molecule": "CCC(NC(=O)c1ccc(Cl)cc1)[C@H]1[C@@H]2C[C@@H](n3cc(C4CC4)nn3)C[C@@H]21 (stereo partly drawn)",
    "Cmax / µM": 1.5
  }
]
